Values were extracted from paper PMC7531004.

system: Streptococcus pyogenes SSI-9; test: Antibacterial activity assay of bead-derived peptides (three concentrations); format: cell-based; parameters: key: +++: inhibition by the 640-fold diluted peptide solution; ++: inhibition by the 160-fold diluted solution; +: inhibition by the 40-fold diluted solution; -: no inhibition; conditions: S. pyogenes, bead-derived peptide solution, three concentrations
Where a SMILES comes first, the peptide text is derived from it. [ ]: non-standard residue; d: D form. The star is where a group is joined. NHCH2CH2OH = OCCN*; For = O=C*

[
  {
    "compound": "CC(C)C[C@@H](NC(=O)[C@H](C)NC(=O)[C@H](NC(=O)[C@H](C)NC(=O)CNC(=O)[C@@H](NC=O)C(C)C)C(C)C)C(=O)N[C@H](C(=O)N[C@H](CC(C)C)C(=O)N[C@@H](Cc1c[nH]c2ccccc12)C(=O)N[C@H](CC(C)C)C(=O)N[C@@H](Cc1c[nH]c2ccccc12)C(=O)N[C@H](CC(C)C)C(=O)N[C@@H](Cc1c[nH]c2ccccc12)C(=O)N[C@H](CC(C)C)C(=O)N[C@@H](Cc1c[nH]c2ccccc12)C(=O)NCCO)C(C)C [compound 527] (For-VGA[dV]A[dL]V[dL]W[dL]W[dL]W[dL]W-NHCH2CH2OH)",
    "studySystem": "Streptococcus pyogenes SSI-9",
    "antibacterial activity": "++"
  },
  {
    "compound": "CC(C)C[C@@H](NC(=O)[C@H](Cc1c[nH]c2ccccc12)NC(=O)[C@H](NC(=O)[C@H](Cc1c[nH]c2ccccc12)NC(=O)[C@@H](CC(C)C)NC(=O)[C@@H](NC(=O)[C@H](NC(=O)[C@H](C)NC(=O)[C@H](NC(=O)[C@H](C)NC(=O)CNC(=O)[C@@H](NC=O)C(C)C)[C@H](C)O)C(C)C)C(C)C)C(C)C)C(=O)N[C@@H](Cc1c[nH]c2ccccc12)C(=O)N[C@@H](C(=O)N[C@@H](Cc1c[nH]c2ccccc12)C(=O)NCCO)C(C)C [compound 6116] (For-VGA[dT]A[dV]V[dL]W[dV]W[dL]W[dV]W-NHCH2CH2OH)",
    "studySystem": "Streptococcus pyogenes SSI-9",
    "antibacterial activity": "-"
  },
  {
    "compound": "CNC(=O)C[C@@H](NC(=O)[C@@H](NC(=O)[C@@H](CC(C)C)NC(=O)[C@H](C)NC(=O)[C@H](NC(=O)[C@H](C)NC(=O)CNC(=O)[C@@H](NC=O)C(C)C)C(C)C)C(C)C)C(=O)N[C@@H](Cc1c[nH]c2ccccc12)C(=O)N[C@H](CC(C)C)C(=O)N[C@@H](Cc1c[nH]c2ccccc12)C(=O)N[C@@H](C(=O)N[C@@H](Cc1c[nH]c2ccccc12)C(=O)N[C@H](CC(C)C)C(=O)N[C@@H](Cc1c[nH]c2ccccc12)C(=O)NCCO)C(C)C [compound 6541] (For-VGA[dV]A[dL]V[dD](NHMe)W[dL]W[dV]W[dL]W-NHCH2CH2OH)",
    "studySystem": "Streptococcus pyogenes SSI-9",
    "antibacterial activity": "-"
  },
  {
    "compound": "CC(C)C[C@@H](NC(=O)[C@H](C)NC(=O)CNC(=O)[C@@H](NC=O)C(C)C)C(=O)N[C@@H](C)C(=O)N[C@@H](C(=O)N[C@H](C(=O)N[C@@H](C(=O)N[C@@H](Cc1c[nH]c2ccccc12)C(=O)N[C@H](CC(C)C)C(=O)N[C@@H](Cc1c[nH]c2ccccc12)C(=O)N[C@H](CC(C)C)C(=O)N[C@@H](Cc1c[nH]c2ccccc12)C(=O)N[C@H](CC(C)C)C(=O)N[C@@H](Cc1c[nH]c2ccccc12)C(=O)NCCO)[C@H](C)O)C(C)C)C(C)C [compound 2172] (For-VGA[dL]A[dV]V[dT]W[dL]W[dL]W[dL]W-NHCH2CH2OH)",
    "studySystem": "Streptococcus pyogenes SSI-9",
    "antibacterial activity": "+"
  }
]
